Biological target: Protein cereblon/NAD-dependent protein deacylase sirtuin-6 (Homo sapiens, UniProt Q8N6T7+Q96SW2)
Sequence (Q8N6T7 2-355 limits assumed): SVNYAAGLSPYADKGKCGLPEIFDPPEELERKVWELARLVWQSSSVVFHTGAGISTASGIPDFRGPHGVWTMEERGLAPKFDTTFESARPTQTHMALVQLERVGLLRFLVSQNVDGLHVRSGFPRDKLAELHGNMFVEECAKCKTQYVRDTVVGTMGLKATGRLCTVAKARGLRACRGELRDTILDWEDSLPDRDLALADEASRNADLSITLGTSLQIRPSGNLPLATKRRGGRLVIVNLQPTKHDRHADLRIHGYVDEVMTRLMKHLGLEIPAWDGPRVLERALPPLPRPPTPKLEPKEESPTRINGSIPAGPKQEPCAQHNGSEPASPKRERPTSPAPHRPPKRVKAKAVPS
Sequence (Q96SW2 whole entry partner): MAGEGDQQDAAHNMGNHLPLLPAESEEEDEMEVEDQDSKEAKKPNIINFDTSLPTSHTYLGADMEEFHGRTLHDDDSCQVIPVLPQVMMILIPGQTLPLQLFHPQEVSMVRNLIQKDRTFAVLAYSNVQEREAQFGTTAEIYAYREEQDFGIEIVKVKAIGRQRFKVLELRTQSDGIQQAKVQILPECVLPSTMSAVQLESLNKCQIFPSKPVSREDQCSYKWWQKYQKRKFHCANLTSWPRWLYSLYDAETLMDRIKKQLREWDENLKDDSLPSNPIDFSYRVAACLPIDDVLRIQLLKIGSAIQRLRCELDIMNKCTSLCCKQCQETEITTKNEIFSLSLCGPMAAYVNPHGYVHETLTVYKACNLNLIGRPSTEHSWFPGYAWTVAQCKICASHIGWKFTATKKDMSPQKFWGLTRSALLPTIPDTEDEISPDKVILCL
Assay: PROTAC activity at CRBN/SIRT6 in human SK-HEP1 cells assessed as induction of SIRT6 degradation at 2 uM incubated for 36 hrs by In-Cell ELISA relative to control
Format: cell-based
QUANTITY_MEASURED: Activity

Worked set:
Nc1cc(N2CCN(CC3CCCN(c4cc5c(cc4F)C(=O)N(C4CCC(=O)NC4=O)C5=O)C3)CC2)ccc1[N+](=O)[O-] (centres undefined) ... 56.6%
Nc1cc(N2CCN(CCNCC3CCN(c4ccc5c(c4)C(=O)N(C4CCC(=O)NC4=O)C5=O)CC3)CC2)ccc1[N+](=O)[O-] (centres undefined) ... < 10%
Nc1cc(N2CCN(CCNCC3CCN(c4cc5c(cc4F)C(=O)N(C4CCC(=O)NC4=O)C5=O)CC3)CC2)ccc1[N+](=O)[O-] (centres undefined) ... 84.7%

We now examine a further compound.
Entry Nc1cc(N2CCN(CC3CCN(c4ccc5c(c4)C(=O)N(C4CCC(=O)NC4=O)C5=O)CC3)CC2)ccc1[N+](=O)[O-] (centres undefined) ; Activity = 93.6%

* * *

Could you please report measured Activity for the items listed next?
Molecular target: Protein cereblon/NAD-dependent protein deacylase sirtuin-6 (Homo sapiens, UniProt Q8N6T7+Q96SW2)
Assay: PROTAC activity at CRBN/SIRT6 in human SK-HEP1 cells assessed as induction of SIRT6 degradation at 2 uM incubated for 36 hrs by In-Cell ELISA relative to control
Assay type: cell-based
Numbers only, in %.

Worked set:
Nc1cc(N2CCN(CCC3CCN(c4cc5c(cc4F)C(=O)N(C4CCC(=O)NC4=O)C5=O)CC3)CC2)ccc1[N+](=O)[O-] (centres undefined) ... 19.8
Nc1cc(N2CCN(CCC3CCN(c4ccc5c(c4)C(=O)N(C4CCC(=O)NC4=O)C5=O)CC3)CC2)ccc1[N+](=O)[O-] (centres undefined) ... 79.6
Nc1cc(N2CCN(CCNCCCC3CCN(c4cc5c(cc4F)C(=O)N(C4CCC(=O)NC4=O)C5=O)CC3)CC2)ccc1[N+](=O)[O-] (centres undefined) ... 97.9
Nc1cc(N2CCN(CCCC3CCN(c4cc5c(cc4F)C(=O)N(C4CCC(=O)NC4=O)C5=O)CC3)CC2)ccc1[N+](=O)[O-] (centres undefined) ... 94.6
Nc1cc(N2CCN(CCNCC3C4CN(c5ccc6c(c5)C(=O)N(C5CCC(=O)NC5=O)C6=O)CC34)CC2)ccc1[N+](=O)[O-] (centres undefined) ... 15.4

Please supply Activity for each of the following items, keeping them in order.
1. Nc1cc(N2CCN(CC3C4CN(c5ccc6c(c5)C(=O)N(C5CCC(=O)NC5=O)C6=O)CC34)CC2)ccc1[N+](=O)[O-] (centres undefined)
2. Nc1cc(N2CCN(CC3C4CN(c5cc6c(cc5F)C(=O)N(C5CCC(=O)NC5=O)C6=O)CC34)CC2)ccc1[N+](=O)[O-] (centres undefined)

1. 17.8
2. 95.6

* * *

Tested on: SK-HEP1
Test: Cytotoxicity against human SK-HEP1 cells combined with irradiation (3 Gy) incubated for 72 hrs by CCK8 assay
Assay type: functional, cell-based
Settings: SK-HEP1, light or radiation study
QUANTITY_MEASURED: IC50

Entry Nc1cc(N2CCN(CC3CCN(c4cc5c(cc4F)C(=O)N(C4CCC(=O)NC4=O)C5=O)CC3)CC2)ccc1[N+](=O)[O-] (stereo unspecified) ; IC50 = ~450 nM
